- Test system: ncRNAs (SEQ ID NO 28-89)
- MEASUREMENT_NOTES: ncRNA arrays of melanocytes, keratinocytes, normal skin, melanoma cell lines and patient samples
- Parameters: species or system human
- TEST_PARAMETERS: melanoma patient 19 sample compared to normal skin
Rule: ncRNA array expression, patient 19 below -1 gives Yes. Equal to or above -1 gives No.

Example entries and their recorded answers appear below.
SEQ ID NO 54 (TTTTTTTTCTTGTCCTATTACAACATTTTATAACCTTATGAATCAATGGATACTTTTATT; listed as DNA, chemistry not given here; listed as Homo sapiens)	No
SEQ ID NO 83 (TCAGTTTGATGATTGGGCTAGGGAATGAAGCTTTGCCACTTAGGAGATAAACCCCATAAC; listed as DNA, chemistry not given here; listed as Homo sapiens)	Yes
SEQ ID NO 59 (TGTGCAGCAGTATCAAAGGTCCTTAAATTCTCAACAATGAAGGAAAAACAAAAACCCATT; listed as DNA, chemistry not given here; listed as Homo sapiens)	Yes

Now, please, on to the next substance.
QUERY: ncRNA array expression, patient 19 under -1? Item: SEQ ID NO 32 (ATTCAAATCTTCATGAATGGCATCACTTGCTTTAGACCCATTTTTTTTTTATTGGTCAGA; DNA, backbone and methylation of C not given here; listed as Homo sapiens)
RESULT: No

---

- Tested on: ncRNAs (SEQ ID NO 28-89)
- MEASUREMENT_NOTES: ncRNA arrays of melanocytes, keratinocytes, normal skin, melanoma cell lines and patient samples
- Design: species or system human
- TEST_PARAMETERS: melanoma patient 9 sample compared to normal skin
MEASUREMENT_KIND: ncRNA array expression, patient 9
Field format: numeric only.

SEQ ID NO 55 (CCTCTCCCCTTCTTGCAAAAAATATTCTATATTCAAGTTTAGGAGAAAACAGAATACTTG; listed as DNA, chemistry not given here; listed as Homo sapiens)	−2.029
SEQ ID NO 81 (CTAGGGGCGGAGTTTCTCGTAAGGGGCAAGGCCAAGGCATCTTGTATTGGGGCTGACAGG; listed as DNA, chemistry not given here; listed as Homo sapiens)	−2.579

Then this substance:
QUERY: Name the recorded ncRNA array expression, patient 9 of the substance listed here: SEQ ID NO 56 (AAAAAATGAGGCAATCTCATCCCGAAACTATTTAAAACTACTCTCCTCTCTCTTGATAAA; listed as DNA, chemistry not given here; listed as Homo sapiens)
RESULT: −1.818

---

- System: ncRNAs (SEQ ID NO 28-89)
- MEASUREMENT_NOTES: ncRNA arrays of melanocytes, keratinocytes, normal skin, melanoma cell lines and patient samples
- Design: species or system human
- TEST_PARAMETERS: melanoma patient 23 sample compared to normal skin
Listing: ncRNA array expression, patient 23 of selected substances
// no unit, no text: just the number

Known ncRNA array expression, patient 23 results, listed for orientation:
SEQ ID NO 82 (GAAGTCAGAAACTAAAGTTCCCTTCTAAGACAAAATCCTGCTTTGGAGAAAAAAAAAAAT; listed as DNA, chemistry not given here; listed as Homo sapiens)	−3.009
SEQ ID NO 47 (GTATTTGTAATATTTGATTTGCTTTTAGCAGAGAAAACAATAAAAGAATCCAGGAAAAGT; listed as DNA, chemistry not given here; listed as Homo sapiens)	−2.401

QUERY: Please give the documented ncRNA array expression, patient 23 of SEQ ID NO 61 (CATACATTGCCCTCACTAATCAATGGACATTTCAGCATTTCATTACTAATTTTGAGAGAA; listed as DNA, chemistry not given here; listed as Homo sapiens)
RESULT: 0.5527

---

# ncRNA array expression, patient 23 listing for each entry below
- System: ncRNAs (SEQ ID NO 28-89)
- MEASUREMENT_NOTES: ncRNA arrays of melanocytes, keratinocytes, normal skin, melanoma cell lines and patient samples
- Design: species or system human
- TEST_PARAMETERS: melanoma patient 23 sample compared to normal skin

SEQ ID NO 42 (TAGACATAGGTTAGAGGGGGAACAGTGCTTAAAATTCCATGGAACTAAGATTTTTTTTAT; listed as DNA, chemistry not given here; listed as Homo sapiens)	−0.1085
SEQ ID NO 50 (GTTATTATAACCAATGCAGACTTTAAAATCCCACCTGGACATCGGGTGAGAGGAGGAGGG; listed as DNA, chemistry not given here; listed as Homo sapiens)	−0.1575
SEQ ID NO 59 (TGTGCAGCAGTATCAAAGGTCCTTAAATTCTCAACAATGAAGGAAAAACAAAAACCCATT; listed as DNA, chemistry not given here; listed as Homo sapiens)	−1.165
SEQ ID NO 38 (GTAAACAAGGTCTCACAAAAACAGCTGACCACACCATAAAATCACTGAGACCGAGCCTGC; listed as DNA, chemistry not given here; listed as Homo sapiens)	−1.569
SEQ ID NO 49 (CGATGGCTTGTCATTGTCCCCTGTCCTGGAACAATAAAGCAAGTGCCTTGTGGTCTCACT; listed as DNA, chemistry not given here; listed as Homo sapiens)	−1.787

Now consider a different substance.
QUERY: Entry SEQ ID NO 83 (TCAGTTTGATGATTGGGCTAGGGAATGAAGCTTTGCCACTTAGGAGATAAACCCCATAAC; listed as DNA, chemistry not given here; listed as Homo sapiens) needs its ncRNA array expression, patient 23 filled in; supply it.
RESULT: −1.855

---

- Tested on: ncRNAs (SEQ ID NO 28-89)
- MEASUREMENT_NOTES: ncRNA arrays of melanocytes, keratinocytes, normal skin, melanoma cell lines and patient samples
- Set-up: species or system human
- TEST_PARAMETERS: melanoma patient 19 sample compared to normal skin
MEASUREMENT_KIND: ncRNA array expression, patient 19

Please review the entries below; each comes with its answer.
SEQ ID NO 70 (AGTTATAGAGGAGGCTCAGGAGGATCTGGGGAAACGGGACCAGAGGGTAAGATGGGTTAT; listed as DNA, chemistry not given here; listed as Homo sapiens)	−1.792
SEQ ID NO 35 (GTTTCCATTGAAGAATATTACGCTCGGGGACAAGCCAGGTGCACGACCAAAAATTTAAAA; DNA, backbone and methylation of C not given here; listed as Homo sapiens)	0.9237
SEQ ID NO 68 (CAAAAAGAAATCTTGTTTACTTGTAAAAATATAGACTACCTCCTACTTGCCACCGTTAAG; listed as DNA, chemistry not given here; listed as Homo sapiens)	−0.5985
SEQ ID NO 42 (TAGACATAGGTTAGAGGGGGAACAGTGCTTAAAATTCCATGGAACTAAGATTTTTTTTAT; listed as DNA, chemistry not given here; listed as Homo sapiens)	−2.231
SEQ ID NO 71 (AAAATTCCAAGAGGGCCTTTTCGAATAGACGCATGAACGGTGTTTGTGTCTGGATCGTCC; listed as DNA, chemistry not given here; listed as Homo sapiens)	3.439

QUERY: # assay system ncRNAs (SEQ ID NO 28-89): give ncRNA array expression, patient 19 of SEQ ID NO 52 (TTTTCTTAGTCTTTTTACTTTTTCCATTATATTCTTTGATATATTTGAGAAAATGGCTTG; listed as DNA, chemistry not given here; listed as Homo sapiens)
RESULT: 0.9835

QUERY: // fetch ncRNA array expression, patient 19; item: SEQ ID NO 29 (TTAAATACATGTTTCTAATATTTTAGTGTTTTGTATTTAGGTTATTTATTCTTTGTATCT; DNA, backbone and methylation of C not given here; listed as Homo sapiens) ; system: ncRNAs (SEQ ID NO 28-89)
RESULT: 0.6625

QUERY: Provide measured ncRNA array expression, patient 19 on ncRNAs (SEQ ID NO 28-89) for SEQ ID NO 40 (GTTAAAGACTAAATTAGTGATTTGGGAGATCAAGCCAATGGGCTTGTCTAAAACCTAGTC; listed as DNA, chemistry not given here; listed as Homo sapiens) please.
RESULT: 0.3342

QUERY: Enter measured ncRNA array expression, patient 19, system ncRNAs (SEQ ID NO 28-89), for the substance shown: SEQ ID NO 55 (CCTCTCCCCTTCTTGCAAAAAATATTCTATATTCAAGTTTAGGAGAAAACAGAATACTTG; listed as DNA, chemistry not given here; listed as Homo sapiens)
RESULT: −1.029

---

In this section, each of the substances is paired with its reported ncRNA array expression, patient 29.
- Tested on: ncRNAs (SEQ ID NO 28-89)
- MEASUREMENT_NOTES: ncRNA arrays of melanocytes, keratinocytes, normal skin, melanoma cell lines and patient samples
- Design: species or system human
- TEST_PARAMETERS: melanoma patient 29 sample compared to normal skin
Lab note: jot the number down without any unit.

Past entries and their recorded results:
SEQ ID NO 81 (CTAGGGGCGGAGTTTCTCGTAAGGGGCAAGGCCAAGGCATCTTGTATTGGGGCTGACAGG; listed as DNA, chemistry not given here; listed as Homo sapiens)	−2.727
SEQ ID NO 72 (AATTACATATATTTAGCAGGATTTTTATTTGCCGTGATATATAGGATAATTTAGTCTTTG; listed as DNA, chemistry not given here; listed as Homo sapiens)	2.583
SEQ ID NO 64 (TTGCCTAGGAACAAAGAAGGCTTGTGAGGAGATCAAGGAACTTACATGAAATTGTAGGAA; listed as DNA, chemistry not given here; listed as Homo sapiens)	1.473
SEQ ID NO 56 (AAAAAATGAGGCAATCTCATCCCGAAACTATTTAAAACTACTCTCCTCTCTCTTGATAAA; listed as DNA, chemistry not given here; listed as Homo sapiens)	−1.912
SEQ ID NO 62 (AATCGTTAATATCATTGATATTAAGTAATTTCCCCACTCTGAGTGAATACTTTGATGATG; listed as DNA, chemistry not given here; listed as Homo sapiens)	1.3702

QUERY: Quickly give me recorded ncRNA array expression, patient 29 for SEQ ID NO 28 (CTTAATGTATCTAAGGTTGGCTTAATCCTGTCTAAAATCAAGGTATTGGACTAGAACAAT; DNA, backbone and methylation of C not given here; listed as Homo sapiens)
RESULT: 3.278

QUERY: State its ncRNA array expression, patient 29 for this substance: SEQ ID NO 77 (AAGTTTCCACGGCAGGTTCTCGTAGCACCTTTGGTCAAGAACTGAAGGGGCCTTTAGATG; listed as DNA, chemistry not given here; listed as Homo sapiens)
RESULT: −1.796
